List of self-cleavage kobs at 10000 uM GlcN6P values.
B1: glmS ribozyme (parent)
chain: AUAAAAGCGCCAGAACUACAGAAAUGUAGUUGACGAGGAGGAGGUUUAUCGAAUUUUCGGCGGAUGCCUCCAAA

- Variants of: B1
- EXPERIMENT: self-cleavage kobs at 10000 uM GlcN6P; higher = faster cleavage; RNA array
- CONDITION: with glucosamine-6-phosphate
This sample holds only a part of the variants without activity.
METRIC_NAME: self-cleavage kobs at 10000 uM GlcN6P (s⁻¹)

# MUTANT, METRIC_NAME, INEQUALITY_SYMBOL, RECORDED_NUMBER
data = [
    ("C11G A12G", "self-cleavage kobs at 10000 uM GlcN6P", "<", "1e-05"),
    ("C8U C10A C50G", "self-cleavage kobs at 10000 uM GlcN6P", "=", "9.18e-05"),
    ("A15U U54A", "self-cleavage kobs at 10000 uM GlcN6P", "=", 0.00623),
    ("U46A U69A", "self-cleavage kobs at 10000 uM GlcN6P", "=", "9.26e-05"),
    ("G41U G66U", "self-cleavage kobs at 10000 uM GlcN6P", "=", "5.53e-05"),
    ("G59C C67A", "self-cleavage kobs at 10000 uM GlcN6P", "<", "1e-05"),
    ("A12U G41U A42G", "self-cleavage kobs at 10000 uM GlcN6P", "=", 0.00149),
    ("A36G G40U C68A", "self-cleavage kobs at 10000 uM GlcN6P", "<", "1e-05"),
    ("G35C A39G U49G C50U", "self-cleavage kobs at 10000 uM GlcN6P", "<", "1e-05"),
    ("A6G A14G", "self-cleavage kobs at 10000 uM GlcN6P", "=", 0.000992),
    ("A33C G37U C70G", "self-cleavage kobs at 10000 uM GlcN6P", "<", "1e-05"),
    ("U30A C34U C68G", "self-cleavage kobs at 10000 uM GlcN6P", "=", 0.000202),
    ("A6C G44U", "self-cleavage kobs at 10000 uM GlcN6P", "<", "1e-05"),
    ("G7A G32U U47G C50U G63A C67G", "self-cleavage kobs at 10000 uM GlcN6P", "=", 0.000988),
    ("G7U G62C", "self-cleavage kobs at 10000 uM GlcN6P", "<", "1e-05"),
    ("G13A U56A", "self-cleavage kobs at 10000 uM GlcN6P", "=", 0.000519),
    ("U31A A42G G51A C70G", "self-cleavage kobs at 10000 uM GlcN6P", "<", "1e-05"),
    ("A12C G66C C70A", "self-cleavage kobs at 10000 uM GlcN6P", "=", "8.13e-05"),
    ("A48C A53U", "self-cleavage kobs at 10000 uM GlcN6P", "=", 0.000191),
    ("U31C G32A", "self-cleavage kobs at 10000 uM GlcN6P", "=", 0.00134),
    ("A64G U65G C71A", "self-cleavage kobs at 10000 uM GlcN6P", "=", 0.00131),
    ("C8U A14U A36U", "self-cleavage kobs at 10000 uM GlcN6P", "<", "1e-05"),
    ("A14G U54A C70G", "self-cleavage kobs at 10000 uM GlcN6P", "=", 0.000124),
    ("A6C G35U", "self-cleavage kobs at 10000 uM GlcN6P", "<", "1e-05"),
    ("G44A G62A", "self-cleavage kobs at 10000 uM GlcN6P", "<", "1e-05"),
    ("G35U U49G", "self-cleavage kobs at 10000 uM GlcN6P", "<", "1e-05"),
    ("A14G U30A", "self-cleavage kobs at 10000 uM GlcN6P", "=", 0.017),
    ("G7A A48G", "self-cleavage kobs at 10000 uM GlcN6P", "<", "1e-05"),
    ("G13U A15U C70U", "self-cleavage kobs at 10000 uM GlcN6P", "=", "5.88e-05"),
    ("G43C C58A", "self-cleavage kobs at 10000 uM GlcN6P", "<", "1e-05"),
    ("G40U U57A", "self-cleavage kobs at 10000 uM GlcN6P", "=", "2.24e-05"),
    ("C34A A36G A39C", "self-cleavage kobs at 10000 uM GlcN6P", "<", "1e-05"),
    ("A33C G38U C68U", "self-cleavage kobs at 10000 uM GlcN6P", "<", "1e-05"),
    ("G29A U46G", "self-cleavage kobs at 10000 uM GlcN6P", "=", 0.00128),
    ("G38A A48C", "self-cleavage kobs at 10000 uM GlcN6P", "<", "1e-05"),
    ("G41A U49G C67U C71U", "self-cleavage kobs at 10000 uM GlcN6P", "<", "1e-05"),
    ("A36C U54G", "self-cleavage kobs at 10000 uM GlcN6P", "<", "1e-05"),
    ("A14G A33G", "self-cleavage kobs at 10000 uM GlcN6P", "<", "1e-05"),
    ("G32A C67G", "self-cleavage kobs at 10000 uM GlcN6P", "=", 0.000164),
    ("U30G A52G", "self-cleavage kobs at 10000 uM GlcN6P", "=", 0.000388),
    ("A12C G40C C61G", "self-cleavage kobs at 10000 uM GlcN6P", "<", "1e-05"),
]
